- PROCEDURE_TEXT: solvent given as SMILES
- ASSAY_SETUP: in CCCCCCCCO
MEASURED_PARAMETER: solvation free energy, 298 K (kcal/mol)
# number only, unit kcal/mol dropped from output

Consider the reported solvation free energy, 298 K for these compounds:
INSERT INTO results (compound, result_units, endpoint_result) VALUES
  ('Clc1ccc(-c2ccccc2)cc1', 'kcal/mol', -9.25),
  ('ClC1=C(Cl)C2(Cl)C3C(Cl)C=CC3C1(Cl)C2(Cl)Cl (centres undefined)', 'kcal/mol', -10.6),
  ('FC(F)(F)Cl', 'kcal/mol', -0.06),
  ('NC(=O)c1ccccc1O', 'kcal/mol', -11.7);

# query: solvation free energy, 298 K of entry c1ccc2ccccc2c1
-7.08

Likewise for O=C(O)c1cc([N+](=O)[O-])ccc1Cl ?
-12.6

Likewise for CCCCCOCCCCC ?
-6.46

Likewise for O=C(O)c1cccc([N+](=O)[O-])c1 ?
-11.9

Likewise for Brc1ccc(Br)cc1 ?
-7.11

* * *

- PROCEDURE_TEXT: solvent given as SMILES
- ASSAY_SETUP: in CCCCCCCCC=CCCCCCCCC(=O)OCC(COC(=O)CCCCCCCC=CCCCCCCCC)OC(=O)CCCCCCCC=CCCCCCCCC
MEASURED_PARAMETER: solvation free energy, 298 K (kcal/mol)
# number only, unit kcal/mol dropped from output

INSERT INTO measurements (mol, measured_parameter, endpoint_result) VALUES
  ('O=[N+]([O-])c1c(Cl)c(Cl)c(Cl)c(Cl)c1Cl', 'solvation free energy, 298 K', -10.5),
  ('Cc1cc(C)c(C)cc1C', 'solvation free energy, 298 K', -7.13);

# query: solvation free energy, 298 K of entry Oc1ccc(Cl)cc1Cl
-7.49

* * *

Let's look at some compounds and their measured solvation free energy, 298 K.
- PROCEDURE_TEXT: solvent given as SMILES
- ASSAY_SETUP: in CCCCC(CC)COC(=O)CCCCC(=O)OCC(CC)CCCC
# number only, unit kJ/mol dropped from output

Consider the reported solvation free energy, 298 K for these compounds:
INSERT INTO measurements (mol, measured_parameter, endpoint_result) VALUES
  ('CCCCCC', 'solvation free energy, 298 K', -13.9),
  ('CCCCCCC', 'solvation free energy, 298 K', -16.8),
  ('CCCCCCCC', 'solvation free energy, 298 K', -19.6),
  ('CCc1ccccc1', 'solvation free energy, 298 K', -22.5),
  ('CCCCC', 'solvation free energy, 298 K', -11.1);

# query: solvation free energy, 298 K of entry CCO
-14.1

Likewise for CCOC(C)=O ?
-15.6

* * *

- PROCEDURE_TEXT: solvent given as SMILES
- ASSAY_SETUP: in CCCCOCCCC
Let's look at some molecules and their measured solvation free energy, 298 K.
# number only, unit kcal/mol dropped from output

INSERT INTO results (mol, measured_parameter, endpoint_result) VALUES
  ('CCCCC', 'solvation free energy, 298 K', -3.19),
  ('O=S(=O)(c1ccccc1)c1ccccc1', 'solvation free energy, 298 K', -12.8);

# query: solvation free energy, 298 K of entry CCCCCCCC
-5.25

Likewise for Cc1cc(C)c(C)cc1C ?
-7.19

Likewise for Brc1ccc(Br)cc1 ?
-7.74

Likewise for C[N+](=O)[O-] ?
-3.57
